B1: FBXO3 (parent)
chain: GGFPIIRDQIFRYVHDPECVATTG

# Variants of: B1
# Test name: protein stability index of a GFP-peptide fusion (GPS, HEK-293T) (PSI 1-6); higher = more stable;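 also: lentivirally expressed fusions sorted by FACS into six bins by GFP to DsRed ratio, PSI derived from sequencing read proportions per bin multiplied by bin number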
# Condition description: c terminus: a fixed tail appended
Returns one of Criterion met or Criterion not met; Criterion met when protein stability index is >= 2.

query: Exam item: decide whether the reported protein stability index for `E18V` is at least 2.
result: Criterion not met

query: Exam item: decide whether the reported protein stability index for `I5W` is at least 2.
result: Criterion not met

query: Exam item: decide whether the reported protein stability index for `E18A` is at least 2.
result: Criterion met

query: Exam item: decide whether the reported protein stability index for `G2R` is at least 2.
result: Criterion met

query: Exam item: decide whether the reported protein stability index for `R12D` is at least 2.
result: Criterion met

query: Exam item: decide whether the reported protein stability index for `V20S` is at least 2.
result: Criterion met

query: Exam item: decide whether the reported protein stability index for `Y13W` is at least 2.
result: Criterion met

query: Exam item: decide whether the reported protein stability index for `R7I` is at least 2.
result: Criterion not met

query: Exam item: decide whether the reported protein stability index for `I5D` is at least 2.
result: Criterion met

query: Exam item: decide whether the reported protein stability index for `I6W` is at least 2.
result: Criterion not met

query: Exam item: decide whether the reported protein stability index for `H15R` is at least 2.
result: Criterion not met

query: Exam item: decide whether the reported protein stability index for `Q9P` is at least 2.
result: Criterion met

query: Exam item: decide whether the reported protein stability index for `G2M` is at least 2.
result: Criterion not met

query: Exam item: decide whether the reported protein stability index for `F3Y` is at least 2.
result: Criterion not met

query: Exam item: decide whether the reported protein stability index for `H15Y` is at least 2.
result: Criterion not met

query: Exam item: decide whether the reported protein stability index for `D8A` is at least 2.
result: Criterion met

query: Exam item: decide whether the reported protein stability index for `D8T` is at least 2.
result: Criterion not met

query: Exam item: decide whether the reported protein stability index for `P17D` is at least 2.
result: Criterion met

query: Exam item: decide whether the reported protein stability index for `E18W` is at least 2.
result: Criterion not met

query: Exam item: decide whether the reported protein stability index for `G1D` is at least 2.
result: Criterion met

query: Exam item: decide whether the reported protein stability index for `F3D` is at least 2.
result: Criterion met

query: Exam item: decide whether the reported protein stability index for `C19M` is at least 2.
result: Criterion met

query: Exam item: decide whether the reported protein stability index for `G24N` is at least 2.
result: Criterion met

query: Exam item: decide whether the reported protein stability index for `F3M` is at least 2.
result: Criterion met

query: Exam item: decide whether the reported protein stability index for `F3C` is at least 2.
result: Criterion met

query: Exam item: decide whether the reported protein stability index for `G1E` is at least 2.
result: Criterion met

query: Exam item: decide whether the reported protein stability index for `D8E` is at least 2.
result: Criterion not met

query: Exam item: decide whether the reported protein stability index for `A21S` is at least 2.
result: Criterion not met

query: Exam item: decide whether the reported protein stability index for `I5Q` is at least 2.
result: Criterion not met

query: Exam item: decide whether the reported protein stability index for `P4Q` is at least 2.
result: Criterion not met

query: Exam item: decide whether the reported protein stability index for `T23A` is at least 2.
result: Criterion not met

query: Exam item: decide whether the reported protein stability index for `F3H` is at least 2.
result: Criterion met

query: Exam item: decide whether the reported protein stability index for `G24P` is at least 2.
result: Criterion not met

query: Exam item: decide whether the reported protein stability index for `G1Q` is at least 2.
result: Criterion met

query: Exam item: decide whether the reported protein stability index for `Q9S` is at least 2.
result: Criterion not met

query: Exam item: decide whether the reported protein stability index for `V14R` is at least 2.
result: Criterion met

query: Exam item: decide whether the reported protein stability index for `Q9V` is at least 2.
result: Criterion met

query: Exam item: decide whether the reported protein stability index for `I6L` is at least 2.
result: Criterion met

query: Exam item: decide whether the reported protein stability index for `V14Q` is at least 2.
result: Criterion met

query: Exam item: decide whether the reported protein stability index for `H15D` is at least 2.
result: Criterion met

query: Exam item: decide whether the reported protein stability index for `I6T` is at least 2.
result: Criterion met

query: Exam item: decide whether the reported protein stability index for `Q9R` is at least 2.
result: Criterion met

query: Exam item: decide whether the reported protein stability index for `H15F` is at least 2.
result: Criterion not met

query: Exam item: decide whether the reported protein stability index for `A21F` is at least 2.
result: Criterion not met

query: Exam item: decide whether the reported protein stability index for `R7V` is at least 2.
result: Criterion not met

query: Exam item: decide whether the reported protein stability index for `I10E` is at least 2.
result: Criterion met

query: Exam item: decide whether the reported protein stability index for `V14Y` is at least 2.
result: Criterion met

query: Exam item: decide whether the reported protein stability index for `D16W` is at least 2.
result: Criterion met

query: Exam item: decide whether the reported protein stability index for `H15L` is at least 2.
result: Criterion not met

query: Exam item: decide whether the reported protein stability index for `Y13R` is at least 2.
result: Criterion met

query: Exam item: decide whether the reported protein stability index for `I5M` is at least 2.
result: Criterion met

query: Exam item: decide whether the reported protein stability index for `T22M` is at least 2.
result: Criterion not met

query: Exam item: decide whether the reported protein stability index for `D16R` is at least 2.
result: Criterion not met

query: Exam item: decide whether the reported protein stability index for `V14C` is at least 2.
result: Criterion not met

query: Exam item: decide whether the reported protein stability index for `P17G` is at least 2.
result: Criterion met

query: Exam item: decide whether the reported protein stability index for `I5S` is at least 2.
result: Criterion met

query: Exam item: decide whether the reported protein stability index for `R12C` is at least 2.
result: Criterion not met

query: Exam item: decide whether the reported protein stability index for `R12F` is at least 2.
result: Criterion not met

query: Exam item: decide whether the reported protein stability index for `V14D` is at least 2.
result: Criterion met

query: Exam item: decide whether the reported protein stability index for `F3S` is at least 2.
result: Criterion met

query: Exam item: decide whether the reported protein stability index for `A21K` is at least 2.
result: Criterion not met

query: Exam item: decide whether the reported protein stability index for `F11P` is at least 2.
result: Criterion met

query: Exam item: decide whether the reported protein stability index for `C19I` is at least 2.
result: Criterion not met

query: Exam item: decide whether the reported protein stability index for `T22K` is at least 2.
result: Criterion not met

query: Exam item: decide whether the reported protein stability index for `I6D` is at least 2.
result: Criterion met

query: Exam item: decide whether the reported protein stability index for `R7K` is at least 2.
result: Criterion met

query: Exam item: decide whether the reported protein stability index for `Q9G` is at least 2.
result: Criterion not met

query: Exam item: decide whether the reported protein stability index for `I5A` is at least 2.
result: Criterion met

query: Exam item: decide whether the reported protein stability index for `R7F` is at least 2.
result: Criterion not met

query: Exam item: decide whether the reported protein stability index for `V20F` is at least 2.
result: Criterion not met

query: Exam item: decide whether the reported protein stability index for `C19F` is at least 2.
result: Criterion not met

query: Exam item: decide whether the reported protein stability index for `P17C` is at least 2.
result: Criterion not met

query: Exam item: decide whether the reported protein stability index for `F11G` is at least 2.
result: Criterion met

query: Exam item: decide whether the reported protein stability index for `E18S` is at least 2.
result: Criterion not met

query: Exam item: decide whether the reported protein stability index for `I10Q` is at least 2.
result: Criterion met
